# ASSAY: predicted hepatic clearance
# Type: in vitro ADME
# RUN_CONDITIONS: rat
PROPERTY_LABEL: predicted hepatic clearance CLhep (mL/min/kg)
Give bare numbers, in mL/min/kg.

[
  {
    "COMPOUND": "COc1ccc(CNc2n[nH]c3c2sc2nc(C)cc(C)c23)cc1 [22a]",
    "PROPERTY_LABEL": "predicted hepatic clearance CLhep",
    "REPORTED_RESULT": 66
  }
]

State the recorded predicted hepatic clearance CLhep for this entry: COc1ccc(CNc2nn(C)c3c2sc2nnc(C)c(C)c23)cc1 [30a]
67.8

###

# Tested on: CYP450
# ASSAY: CYP450 inhibition profile
# Type: in vitro ADME
PROPERTY_LABEL: IC50

[
  {
    "COMPOUND": "Cc1nnc2sc3c(NCc4ccc(S(C)(=O)=O)c(F)c4)nn(C)c3c2c1C [30b]",
    "IC50": "> 30 µM"
  }
]

# returns recorded IC50 (system: CYP450) for COc1ccc(CNc2n[nH]c3c2sc2nc(C)cc(C)c23)cc1 [22a]
< 5 µM
